- Test system: Eimeria tenella
- EXPERIMENT_SUMMARY: Inhibition Eimeria tenella growth
- Format: functional
- RECORDED_CONDITIONS: read-out: MEC
Could you please report measured minimal effective concentration for the items listed next?
Respond numerically; units are µg/mL and should not be typed.

Challenge: Fill in minimal effective concentration for record CC(C)Sc1ncnc2c1cnn2C1O[C@H](CO)[C@@H](O)[C@H]1O (some centres undefined)
Response given: 0.019

Challenge: Report measured minimal effective concentration; entry is CCCCSc1ncnc2c1cnn2C1O[C@H](CO)[C@@H](O)[C@H]1O (some centres undefined)
Response given: 0.019

Challenge: Identify measured minimal effective concentration corresponding to CCCCCCCSc1ncnc2c1cnn2C1O[C@H](CO)[C@@H](O)[C@H]1O (some centres undefined)
Response given: 0.31

====

- Test system: Eimeria tenella
- EXPERIMENT_SUMMARY: Inhibition Eimeria tenella growth
- Type: functional
- RECORDED_CONDITIONS: read-out: MEC
VALUE_TYPE: minimal effective concentration

Challenge: State, in one line, measured minimal effective concentration of Sc1ncnc2nc[nH]c12 [MERCAPTOPURINE ANHYDROUS]
Response given: > 20 µg/mL

Challenge: Return minimal effective concentration (reported value) for this compound: CSc1nccc2c1ncn2C1O[C@H](CO)[C@@H](O)[C@H]1O (stereo partly drawn)
Response given: > 20 µg/mL

Challenge: Give the reported value of minimal effective concentration for this record: "Sc1ncnc2[nH]ncc12"
Response given: > 20 µg/mL

====

Please provide measured minimal effective concentration for the entries that follow.
- Tested on: Eimeria tenella
- EXPERIMENT_SUMMARY: Inhibition Eimeria tenella growth
- Assay type: functional
- RECORDED_CONDITIONS: read-out: MEC

Challenge: Tell us which minimal effective concentration value is on record for "CSc1ncnc2c1ncn2[C@@H]1O[C@H](CO)[C@@H](O)[C@@H]1O"
Response given: > 20 µg/mL

Challenge: Report minimal effective concentration for CSc1nc(C)nc2c1ncn2C1O[C@H](CO)[C@@H](O)[C@H]1O (stereo partly drawn)
Response given: > 25 µg/mL

Challenge: Identify measured minimal effective concentration corresponding to CCCCCSc1ncnc2c1ncn2C1O[C@H](CO)[C@@H](O)[C@H]1O (stereo partly drawn)
Response given: > 50 µg/mL
